# Test Settings: 323.15 K; 101.33 kPa; Liquid; Falling or rolling sphere viscometry
Provide the reported viscosity of each item.
Answers are plain numbers, in mPa·s.

The following compounds have reported results that may help.
| Compound | Output Unit | viscosity |
| --- | --- | --- |
| CC[n+]1ccc(C)cc1.O=S(=O)([N-]S(=O)(=O)C(F)(F)F)C(F)(F)F | mPa·s | 15 |
| CC[n+]1ccccc1C.O=S(=O)([N-]S(=O)(=O)C(F)(F)F)C(F)(F)F | mPa·s | 29.05 |

Look up viscosity for the entries below, preserving their order.
1. CC[n+]1cccc(C)c1.O=S(=O)([N-]S(=O)(=O)C(F)(F)F)C(F)(F)F
2. CC[n+]1ccccc1.O=S(=O)([N-]S(=O)(=O)C(F)(F)F)C(F)(F)F [1-ethylpyridinium bis[(trifluoromethyl)sulfonyl]imide]

1: 17.32; 2: 18.48

---

Could you please report measured viscosity for the items listed next?
# Test Settings: 333.15 K; 101.33 kPa; Liquid; Falling or rolling sphere viscometry
Answers are plain numbers, in mPa·s.

Worked examples follow.
| Compound | Output Unit | Number |
| --- | --- | --- |
| CC[n+]1ccccc1.O=S(=O)([N-]S(=O)(=O)C(F)(F)F)C(F)(F)F [1-ethylpyridinium bis[(trifluoromethyl)sulfonyl]imide] | mPa·s | 14.35 |
| CC[n+]1ccccc1C.O=S(=O)([N-]S(=O)(=O)C(F)(F)F)C(F)(F)F | mPa·s | 21.51 |
| CC[n+]1ccc(C)cc1.O=S(=O)([N-]S(=O)(=O)C(F)(F)F)C(F)(F)F | mPa·s | 11.82 |

Record summary for CC[n+]1cccc(C)c1.O=S(=O)([N-]S(=O)(=O)C(F)(F)F)C(F)(F)F : reported viscosity = 13.39

---

# Test Method Notes: refractive index (Na D-line) (dimensionless)
# Test Settings: 303.15 K; 101.33 kPa; Liquid; Standard Abbe refractometry
Field: refractive index. Provide a value for each of the compounds that follow.
One number for each entry.

| Compound | refractive index |
| --- | --- |
| CC[n+]1ccccc1C.O=S(=O)([N-]S(=O)(=O)C(F)(F)F)C(F)(F)F | 1.4464 |

Can you give me refractive index for all of these, one by one?
1. CC[n+]1ccc(C)cc1.O=S(=O)([N-]S(=O)(=O)C(F)(F)F)C(F)(F)F
2. CC[n+]1ccccc1.O=S(=O)([N-]S(=O)(=O)C(F)(F)F)C(F)(F)F [1-ethylpyridinium bis[(trifluoromethyl)sulfonyl]imide]
3. CC[n+]1cccc(C)c1.O=S(=O)([N-]S(=O)(=O)C(F)(F)F)C(F)(F)F

1: 1.4426; 2: 1.43939; 3: 1.44204

---

Can you tell me speed of sound for the items I'm about to list?
# Test Settings: 338.15 K; 101.33 kPa; Liquid; Sing-around technique in a fixed-path interferometer
Give bare numbers, in m/s.

Example entries begin here.
| Compound | speed of sound [m/s] |
| --- | --- |
| CC[n+]1ccc(C)cc1.O=S(=O)([N-]S(=O)(=O)C(F)(F)F)C(F)(F)F | 1176.5 |
| CC[n+]1ccccc1C.O=S(=O)([N-]S(=O)(=O)C(F)(F)F)C(F)(F)F | 1213 |
| CC[n+]1cccc(C)c1.O=S(=O)([N-]S(=O)(=O)C(F)(F)F)C(F)(F)F | 1174.3 |

Now look at this entry.
Entry CC[n+]1ccccc1.O=S(=O)([N-]S(=O)(=O)C(F)(F)F)C(F)(F)F [1-ethylpyridinium bis[(trifluoromethyl)sulfonyl]imide] ; speed of sound = 1183.8
